Each entry below lists one item and its recorded pIC50 value.
- measured.on: HLA-DRB1*0401 (Homo sapiens, UniProt P01903+P01911, A100K/A169T/F76Y/I96L/K127E/L162R/M171V/N62H/P40V/Q125Y/R42H/S133A/S149N/S66Y/V115G/V209L/W38E)
- Construct: incubated overnight to equilibrium with a soluble HLA-DR molecule; purchased Benaroya Research Institute, Seattle, WA, USA
- assay.procedure: Class II HLA binding assay
- conditions.used: Figure 6; shortened peptides of Table 3; category by IC50; read-out: HLA binding affinity category, DRB1*0401
pIC50: −log10 of the molar value. Ends that are not written are not given here.

# substance, pIC50
records = [
    ("MERVEWLRKKQDVHNF [DES-LEU28_TPT (18-33)]", "< 4.00"),
    ("MERVEWLRKKLQDVHNF-OH [API_TPT (18-34) C-term]", "< 4.00"),
    ("MERVEWLRK(Ac)KLQDVHNF [LYS-AC26_TPT (18-34)]", "< 4.00"),
]

###

- measured.on: HLA-DRB1*1101 (Homo sapiens, UniProt P01903+P01911, A100R/A169T/A87E/I96F/K41T/L162R/M171V/P40S/Q125H/Q178H/Q39Y/Q99D/R42S/S66Y/T262R/V115G/W38E)
- Sequence (P01903 26-254 limits assumed, other chains not shown): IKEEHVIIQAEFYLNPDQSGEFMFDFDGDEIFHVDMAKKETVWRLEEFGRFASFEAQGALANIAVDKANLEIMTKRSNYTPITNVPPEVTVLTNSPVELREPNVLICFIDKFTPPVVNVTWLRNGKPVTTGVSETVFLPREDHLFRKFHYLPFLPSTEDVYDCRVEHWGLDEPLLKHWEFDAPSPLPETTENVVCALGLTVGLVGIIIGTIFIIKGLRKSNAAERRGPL
- assay.procedure: Class II HLA binding assay
- conditions.used: Figure 6; shortened peptides of Table 3; category by IC50; read-out: HLA binding affinity category, DRB1*1101
Ends that are not written are not given here.
The entries below are paired with their reported IC50.
measured.quantity: IC50

# substance, readout.value
rows = [
    ("MERVEWLRK(Ac)KLQDVHNF [LYS-AC26_TPT (18-34)]", "> 100000 nM"),
    ("MERVEWLRKKQDVHNF [DES-LEU28_TPT (18-33)]", "1000 to 10000 nM"),
    ("MERVEWLRKKLQDVHNF-OH [API_TPT (18-34) C-term]", "100 to 1000 nM"),
]

###

- measured.on: HLA-DRB1*0701 (Homo sapiens, UniProt P01903+P01911, A100R/A102G/A103Q/D57E/D86V/E43K/F76Y/K127E/L162R/M171V/P40G/Q125H/Q99D/R33Q/R42Y/R54Q/S133A/S66F/T210M/V115G/Y107V/Y59L/Y89S)
- assay.procedure: Class II HLA binding assay
- conditions.used: Figure 6; shortened peptides of Table 3; category by IC50; read-out: HLA binding affinity category, DRB1*0701
Ends that are not written are not given here.
measured.quantity: IC50

# substance, measured.quantity, readout.value
measured = [
    ("MERVEWLRKKQDVHNF [DES-LEU28_TPT (18-33)]", "IC50", "> 100 µM"),
    ("MERVEWLRKKLQDVHNF-OH [API_TPT (18-34) C-term]", "IC50", "> 100 µM"),
    ("MERVEWLRK(Ac)KLQDVHNF [LYS-AC26_TPT (18-34)]", "IC50", "> 100 µM"),
]

Where do the numbers come from? From paper PMC12722964.
